# test.details: Cytotoxicity assay (CellTiter-Glo, 72 h), MESO-1
# Format: cell-based
# condition.context: human, MESO-1 malignant pleural mesothelioma cells, conc 0.000762939 uM; raw replicate data; read-out: MESO1 viability (%)
The following compounds are shown together with reported viability at 72 h, 0.000762939 uM values.

# compound, viability at 72 h, 0.000762939 uM (%)
records = [
    ("CO[C@@H]1/C=C/C=C/[C@@H](C)C[C@@H](C)C(=O)C[C@H](O)/C(C)=C/[C@@H](C)C(=O)C[C@@H]([C@H](C)C[C@@H]2CC[C@@H](O)[C@H](OC)C2)OC(=O)[C@@H]2CCCCN2C(=O)C(=O)[C@]2(O)O[C@@H](CC[C@H]2C)C1", 93.4),
    ("CO[C@H]1C[C@@H]2CC[C@@H](C)[C@@](O)(O2)C(=O)C(=O)N2CCCC[C@H]2C(=O)O[C@H]([C@H](C)C[C@@H]2CC[C@@H](O)[C@H](OC)C2)CC(=O)[C@H](C)/C=C(\\C)[C@@H](O)CC(=O)[C@H](C)C[C@H](C)/C=C/C=C(C)/C=C/1C", 100),
    ("CO[C@H]1C[C@@H]2CC[C@@H](C)[C@@](O)(O2)C(=O)C(=O)N2CCCC[C@H]2C(=O)O[C@H]([C@H](C)C[C@@H]2CC[C@@H](O)[C@H](OC)C2)CC(=O)[C@H](C)/C=C(\\C)[C@@H](O)CC[C@H](C)/C=C/C=C/C=C/1C", 94.4),
    ("COC1CC2CCC(C)C(O)(O2)C(=O)C(=O)N2CCCCC2C(=O)OC(C(C)CC2CCC(O)C(OC)C2)CCC(C)C=C(C)C(O)C(OC)C(=O)C(C)CC(C)C=CC=CC=C1C (stereo not shown)", 80.3),
]

====

# Test system: T lymphoma Jurkat cells
# test.details: Cytotoxicity assay (CellTiter-Glo, 72 h), Jurkat
# Assay type: cell-based
# condition.context: conc 1.5625 uM, raw data (replicates)
The following compounds are shown together with reported Jurkat viability (%) values.
quantity.kind: Jurkat viability (%)

# compound, target.of.assay, experimental.result
data = [
    ("CO[C@H]1C[C@@H]2CC[C@@H](C)[C@@](O)(O2)C(=O)C(=O)N2CCCC[C@H]2C(=O)O[C@H]([C@H](C)C[C@@H]2CC[C@@H](O)[C@H](OC)C2)CC(=O)[C@H](C)/C=C(\\C)[C@@H](O)CC(=O)[C@H](C)C[C@H](C)/C=C/C=C(C)/C=C/1C", "T lymphoma Jurkat cells", "98.7%"),
    ("CO[C@H]1C[C@@H]2CC[C@@H](C)[C@@](O)(O2)C(=O)C(=O)N2CCCC[C@H]2C(=O)O[C@H]([C@H](C)C[C@@H]2CC[C@@H](O)[C@H](OC)C2)CC(=O)[C@H](C)/C=C(\\C)[C@@H](O)CC[C@H](C)/C=C/C=C/C=C/1C", "T lymphoma Jurkat cells", "28.3%"),
    ("COC1CC2CCC(C)C(O)(O2)C(=O)C(=O)N2CCCCC2C(=O)OC(C(C)CC2CCC(O)C(OC)C2)CCC(C)C=C(C)C(O)C(OC)C(=O)C(C)CC(C)C=CC=CC=C1C (stereo not shown)", "T lymphoma Jurkat cells", "22.0%"),
    ("COC1CC2CCC(C)C(O)(O2)C(=O)C(=O)N2CCCCC2C(=O)OC(C(C)CC2CCC(O)C(OC)C2)CC(O)CC(=O)C(C)C=C(C)C(O)CC(=O)C(C)CC(C)C=CC=CC=C1C (stereo not shown)", "T lymphoma Jurkat cells", "32.3%"),
]

====

# test.details: Cytotoxicity assay (CellTiter-Glo, 72 h), MESO-1
# Type: cell-based
# condition.context: human, MESO-1 cells (malignant pleural mesothelioma), MESO-1 cells, 72 h; read-out: Plateau level of cell viability in the dose-response curve
quantity.kind: viability at 72 h

# compound, experimental.result
data = [
    ("COC1CC2CCC(C)C(O)(O2)C(=O)C(=O)N2CCCCC2C(=O)OC(C(C)CC2CCC(O)C(OC)C2)CCC(C)C=C(C)C(O)C(OC)C(=O)C(C)CC(C)C=CC=CC=C1C (centres unmarked)", "~75%"),
    ("CO[C@H]1C[C@@H]2CC[C@@H](C)[C@@](O)(O2)C(=O)C(=O)N2CCCC[C@H]2C(=O)O[C@H]([C@H](C)C[C@@H]2CC[C@@H](O)[C@H](OC)C2)CC(=O)[C@H](C)/C=C(\\C)[C@@H](O)[C@@H](OC)C(=O)[C@H](C)C[C@H](C)/C=C/C=C/C=C/1C [Compound 1, rapamycin, reference compound]", "~75%"),
]

====

The following compounds are shown together with reported viability at 72 h values.
# test.details: Cytotoxicity assay (CellTiter-Glo, 72 h), SKOV-3
# Assay type: cell-based, human
# condition.context: human, SKOV-3 cells (ovarian adenocarcinoma), SKOV-3 cells, 72 h; read-out: Plateau level of cell viability in the dose-response curve

# compound, viability at 72 h
measured = [
    ("CO[C@H]1C[C@@H]2CC[C@@H](C)[C@@](O)(O2)C(=O)C(=O)N2CCCC[C@H]2C(=O)O[C@H]([C@H](C)C[C@@H]2CC[C@@H](O)[C@H](OC)C2)CC(=O)[C@H](C)/C=C(\\C)[C@@H](O)[C@@H](OC)C(=O)[C@H](C)C[C@H](C)/C=C/C=C/C=C/1C [Compound 1, rapamycin, reference compound]", "~60%"),
    ("COC1CC2CCC(C)C(O)(O2)C(=O)C(=O)N2CCCCC2C(=O)OC(C(C)CC2CCC(O)C(OC)C2)CCC(C)C=C(C)C(O)C(OC)C(=O)C(C)CC(C)C=CC=CC=C1C (centres unmarked)", "~60%"),
]

====

The following compounds are shown together with reported viability at 72 h, 0.0244141 uM values.
# test.details: Cytotoxicity assay (CellTiter-Glo, 72 h), Jurkat
# Assay type: cell-based
# condition.context: human, Jurkat cells (T lymphoma), conc 0.0244141 uM, raw data (replicates)
quantity.kind: viability at 72 h, 0.0244141 uM (%)

# compound, unit.of.measurement, experimental.result
records = [
    ("CO[C@H]1C[C@@H]2CC[C@@H](C)[C@@](O)(O2)C(=O)C(=O)N2CCCC[C@H]2C(=O)O[C@H]([C@H](C)C[C@@H]2CC[C@@H](O)[C@H](OC)C2)CC(=O)[C@H](C)/C=C(\\C)[C@@H](O)CC[C@H](C)/C=C/C=C/C=C/1C", "%", 98.9),
    ("COC1CC2CCC(C)C(O)(O2)C(=O)C(=O)N2CCCCC2C(=O)OC(C(C)CC2CCC(O)C(OC)C2)CC(=O)C(C)C=C(C)C(O)C(OC)C(=O)C(C)CC(C)C=CCCC=C1C (centres unmarked)", "%", 98.5),
    ("CO[C@@H]1C[C@H](C[C@@H](C)[C@@H]2CC(=O)[C@H](C)/C=C(\\C)[C@@H](O)[C@@H](OC)C(=O)[C@H](C)C[C@H](C)/C=C/C=C/C=C(\\C)[C@H](O)C[C@@H]3CC[C@@H](C)[C@@](O)(O3)C(=O)C(=O)N3CCCC[C@H]3C(=O)O2)CC[C@H]1O [Compound 17, (16R)-16-O-demethyl rapamycin]", "%", 79),
    ("COC1CC2CCC(C)C(O)(O2)C(=O)C(=O)N2CCCCC2C(=O)OC(C(C)CC2CCC(O)C(OC)C2)CCC(C)C=C(C)C(O)C(OC)C(=O)C(C)CC(C)C=CC=CC=C1C (centres unmarked)", "%", 30.6),
    ("CO[C@@H]1/C=C/C=C/[C@@H](C)C[C@@H](C)C(=O)C[C@H](O)/C(C)=C/[C@@H](C)C(=O)C[C@@H]([C@H](C)C[C@@H]2CC[C@@H](O)[C@H](OC)C2)OC(=O)[C@@H]2CCCCN2C(=O)C(=O)[C@]2(O)O[C@@H](CC[C@H]2C)C1", "%", 93.7),
]

====

# test.details: Cytotoxicity assay (CellTiter-Glo, 72 h), Jurkat
# Assay type: cell-based
# condition.context: human, Jurkat cells (T lymphoma), conc 0.012207 uM, raw data (replicates)
The following compounds are shown together with reported viability at 72 h, 0.012207 uM values.

# compound, viability at 72 h, 0.012207 uM [%]
records = [
    ("COC1CC2CCC(C)C(O)(O2)C(=O)C(=O)N2CCCCC2C(=O)OC(C(C)CC2CCC(O)C(OC)C2)CC(=O)C(C)C=C(C)C(O)CC(=O)C(C)C=C(C)C=CC=CC=C1C (stereo not drawn)", 100),
    ("CO[C@@H]1/C=C/C=C/[C@@H](C)C[C@@H](C)C(=O)C[C@H](O)/C(C)=C/[C@@H](C)C(=O)C[C@@H]([C@H](C)C[C@@H]2CC[C@@H](O)[C@H](OC)C2)OC(=O)[C@@H]2CCCCN2C(=O)C(=O)[C@]2(O)O[C@@H](CC[C@H]2C)C1", 92.7),
    ("COC1CC2CCC(C)C(O)(O2)C(=O)C(=O)N2CCCCC2C(=O)OC(C(C)CC2CCC(O)C(OC)C2)CC(O)CC(=O)C(C)C=C(C)C(O)CC(=O)C(C)CC(C)C=CC=CC=C1C (stereo not drawn)", 99.4),
]
